# System: Mus musculus
# Protocol notes: Dopaminergic activity in CD1 mouse striatum assessed as dopamine turn over at 3.29 umol/kg, sc relative to control
# Format: functional
Quantity kind: Activity (%)
Answers are plain numbers, in %.

Would you please look over these solved cases?
CN1CCc2cc(-c3cccc4c3oc3ccccc34)cc3c2[C@H]1Cc1ccc(O)c(O)c1-3.Cl :: 92
CN(C)c1ccc(-c2cc3c4c(c2)-c2c(ccc(O)c2O)C[C@H]4N(C)CC3)cc1.Cl.Cl :: 52.3
Cc1cc2c3c(c1)-c1c(ccc(O)c1O)C[C@H]3N(C)CC2.Cl :: 42.3

Okay, here is my list. What is Activity for each of these?
1. CN1CCc2cc(-c3ccc(O)cc3)cc3c2[C@H]1Cc1ccc(O)c(O)c1-3.Cl
2. CN1CCc2cc(-c3ccccc3)cc3c2[C@H]1Cc1ccc(O)c(O)c1-3.Cl
3. CN1CCc2cccc3c2[C@H]1Cc1ccc(O)c(O)c1-3.CN1CCc2cccc3c2[C@H]1Cc1ccc(O)c(O)c1-3.Cl.Cl.O [APOMORPHINE HYDROCHLORIDE]

Ans:
43.6
44.2
48.6

====

# Target entity: D(3) dopamine receptor (Rattus norvegicus, UniProt P19020)
# Sequence (P19020 whole entry): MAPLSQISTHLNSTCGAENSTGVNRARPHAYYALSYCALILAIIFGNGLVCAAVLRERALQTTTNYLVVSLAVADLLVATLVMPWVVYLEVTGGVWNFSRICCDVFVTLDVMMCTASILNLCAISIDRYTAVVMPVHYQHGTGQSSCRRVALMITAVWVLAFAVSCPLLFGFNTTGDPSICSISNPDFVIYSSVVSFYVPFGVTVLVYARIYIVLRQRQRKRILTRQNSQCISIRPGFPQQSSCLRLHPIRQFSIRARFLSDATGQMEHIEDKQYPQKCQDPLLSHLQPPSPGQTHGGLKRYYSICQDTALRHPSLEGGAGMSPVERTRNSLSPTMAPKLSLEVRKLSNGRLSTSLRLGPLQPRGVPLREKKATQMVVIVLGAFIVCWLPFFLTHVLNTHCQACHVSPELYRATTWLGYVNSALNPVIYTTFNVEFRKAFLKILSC
Quantity kind: Ki (nM)
Numbers only, in nM.

Example entries and their recorded answers appear below.
CN1CCc2cc(-c3ccc(O)cc3)cc3c2[C@H]1Cc1ccc(O)c(O)c1-3.Cl :: 1.78
Cc1cc2c3c(c1)-c1c(ccc(O)c1O)C[C@H]3N(C)CC2.Cl :: 40.1
CN1CCc2cc(-c3cccc4c3oc3ccccc34)cc3c2[C@H]1Cc1ccc(O)c(O)c1-3.Cl :: 22.3

For every item in the list below, what is its measured Ki?
1. CN1CCc2cc(-c3ccccc3)cc3c2[C@H]1Cc1ccc(O)c(O)c1-3.Cl
2. CN(C)c1ccc(-c2cc3c4c(c2)-c2c(ccc(O)c2O)C[C@H]4N(C)CC3)cc1.Cl.Cl

Ans:
[7.7, 78.4]

====

# Target entity: D(3) dopamine receptor (Rattus norvegicus, UniProt P19020)
pIC50: −log10 of the molar value.
Output YES for pIC50 not less than 8; output NO otherwise.

Reference set (3 entries):
Cc1cc2c3c(c1)-c1c(ccc(O)c1O)C[C@H]3N(C)CC2.Cl :: NO
CN(C)c1ccc(-c2cc3c4c(c2)-c2c(ccc(O)c2O)C[C@H]4N(C)CC3)cc1.Cl.Cl :: NO
CN1CCc2cc(-c3ccc(O)cc3)cc3c2[C@H]1Cc1ccc(O)c(O)c1-3.Cl :: YES

# input for lookup
Q: Check if pIC50 >= 8 (inclusive). Item: `CN1CCc2cc(-c3cccc4c3oc3ccccc34)cc3c2[C@H]1Cc1ccc(O)c(O)c1-3.Cl`
Ans: NO

====

Assignment: determine reported log10 of IC50 for the given molecules.
# Target entity: D(2) dopamine receptor (Rattus norvegicus, UniProt P61169)
# Sequence (P61169 whole entry): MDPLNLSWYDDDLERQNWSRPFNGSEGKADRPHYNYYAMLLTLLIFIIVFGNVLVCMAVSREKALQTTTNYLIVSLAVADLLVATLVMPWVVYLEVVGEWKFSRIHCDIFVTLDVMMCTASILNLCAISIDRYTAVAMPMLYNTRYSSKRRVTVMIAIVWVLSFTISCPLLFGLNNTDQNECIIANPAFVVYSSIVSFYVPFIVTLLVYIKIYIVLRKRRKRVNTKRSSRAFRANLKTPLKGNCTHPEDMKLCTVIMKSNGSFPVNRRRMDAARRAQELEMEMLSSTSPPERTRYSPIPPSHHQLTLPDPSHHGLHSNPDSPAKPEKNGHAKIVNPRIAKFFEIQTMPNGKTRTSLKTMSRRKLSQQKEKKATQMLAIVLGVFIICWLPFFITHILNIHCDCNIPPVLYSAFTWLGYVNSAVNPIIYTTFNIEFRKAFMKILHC
# Protocol notes: Displacement of [3H]spiperone from rat dopamine D2 receptor in brain striatal membrane
The figures below represent log10 of IC50, where IC50 is stated in nM.

Look over these answered cases.
CN1CCc2cc(-c3ccc(O)cc3)cc3c2[C@H]1Cc1ccc(O)c(O)c1-3.Cl :: 0.93
CN1CCc2cc(-c3cccc4c3oc3ccccc34)cc3c2[C@H]1Cc1ccc(O)c(O)c1-3.Cl :: 3.51
CN1CCc2cc(-c3ccccc3)cc3c2[C@H]1Cc1ccc(O)c(O)c1-3.Cl :: 1.37
CN(C)c1ccc(-c2cc3c4c(c2)-c2c(ccc(O)c2O)C[C@H]4N(C)CC3)cc1.Cl.Cl :: 2.68

// next entry
Q: Request the reported log10 of IC50 associated with `Cc1cc2c3c(c1)-c1c(ccc(O)c1O)C[C@H]3N(C)CC2.Cl`
Ans: 1.63

====

# Target entity: UniProt P61169
# Protocol notes: Displacement of [3H]spiperone from rat dopamine D2 receptor in brain striatal membrane
pKi: −log10 of the molar value.
pKi of 8 or higher: Yes. Under 8: No.

Q: Has `CN(C)c1ccc(-c2cc3c4c(c2)-c2c(ccc(O)c2O)C[C@H]4N(C)CC3)cc1.Cl.Cl` a recorded pKi greater than or equal to 8?
Ans: No

====

# Target entity: D(2) dopamine receptor (Rattus norvegicus)
# Protocol notes: Displacement of [3H]spiperone from rat dopamine D2 receptor in brain striatal membrane
Quantity kind: Ki (nM)
Numbers only, in nM.

CN1CCc2cc(-c3ccccc3)cc3c2[C@H]1Cc1ccc(O)c(O)c1-3.Cl :: 11.7
Cc1cc2c3c(c1)-c1c(ccc(O)c1O)C[C@H]3N(C)CC2.Cl :: 20.7

Look at each compound and report its Ki.
1. CN1CCc2cc(-c3ccc(O)cc3)cc3c2[C@H]1Cc1ccc(O)c(O)c1-3.Cl
2. CN1CCc2cc(-c3cccc4c3oc3ccccc34)cc3c2[C@H]1Cc1ccc(O)c(O)c1-3.Cl

Ans:
4.14
1630
